# Test system: Candida albicans
# methodSummary: Antifungal activity against Candida albicans ATCC 3122 by twofold serial dilution method
# Format: functional
Recorded measurements of MIC, one per entry
measuredParameter: MIC (µg/mL)

{"smi": "Fc1cccc([C@H]2N[C@@H](c3cccc(F)c3)C3CCCC2/C3=N/N=c2\\scc(-c3ccccc3)n2-c2ccccc2)c1", "measuredParameter": "MIC", "outputUnit": "µg/mL", "recordedMeasurement": 12.5}
{"smi": "Cc1ccc([C@H]2N[C@@H](c3ccc(C)cc3)C3CCCC2/C3=N/N=c2/[nH]c(-c3ccccc3)cs2)cc1", "measuredParameter": "MIC", "outputUnit": "µg/mL", "recordedMeasurement": 200}
{"smi": "Fc1ccc([C@H]2N[C@@H](c3ccc(F)cc3)C3CCCC2/C3=N/N=c2/[nH]c(-c3ccccc3)cs2)cc1", "measuredParameter": "MIC", "outputUnit": "µg/mL", "recordedMeasurement": 100}
{"smi": "Fc1cccc([C@H]2N[C@@H](c3cccc(F)c3)C3CCCC2/C3=N/N=c2/[nH]c(-c3ccccc3)cs2)c1", "measuredParameter": "MIC", "outputUnit": "µg/mL", "recordedMeasurement": 100}
{"smi": "c1ccc(-c2cs/c(=N\\N=C3\\C4CCCC3[C@H](c3ccccc3)N[C@@H]4c3ccccc3)[nH]2)cc1", "measuredParameter": "MIC", "outputUnit": "µg/mL", "recordedMeasurement": 200}
{"smi": "COc1ccc([C@H]2N[C@@H](c3ccc(OC)cc3)C3CCCC2/C3=N/N=c2/[nH]c(-c3ccccc3)cs2)cc1", "measuredParameter": "MIC", "outputUnit": "µg/mL", "recordedMeasurement": 100}
{"smi": "Clc1ccc([C@H]2N[C@@H](c3ccc(Cl)cc3)C3CCCC2/C3=N/N=c2\\scc(-c3ccccc3)n2-c2ccccc2)cc1", "measuredParameter": "MIC", "outputUnit": "µg/mL", "recordedMeasurement": 100}
